Measured EC50 values are reported for all entries that follow.
biological target: NPFF2 (Homo sapiens, UniProt Q9Y5X5); construct: expressed in transfected cells; host or cells: NIH3T3; test: Receptor Selection and Amplification Technology (R-SAT) functional assay, NPFF2; type: cell-based; conditions: R-SAT, Table 1; NA = No activity detectable at the highest dose tested (20 μM); read-out: NPFF2 pEC50 (converted)
Sequence (Q9Y5X5 103-522): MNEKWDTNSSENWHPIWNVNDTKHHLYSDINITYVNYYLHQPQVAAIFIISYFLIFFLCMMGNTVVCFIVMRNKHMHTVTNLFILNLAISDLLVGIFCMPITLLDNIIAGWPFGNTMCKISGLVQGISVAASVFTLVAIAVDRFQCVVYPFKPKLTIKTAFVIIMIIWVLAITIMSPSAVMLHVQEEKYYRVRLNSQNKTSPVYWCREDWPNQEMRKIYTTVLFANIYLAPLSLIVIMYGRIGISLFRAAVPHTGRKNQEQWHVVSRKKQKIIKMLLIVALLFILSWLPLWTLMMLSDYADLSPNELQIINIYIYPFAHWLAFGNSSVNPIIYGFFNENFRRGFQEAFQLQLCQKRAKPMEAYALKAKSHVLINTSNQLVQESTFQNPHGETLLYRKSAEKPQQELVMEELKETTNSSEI
Where a name gives a salt, the structure may show the parent alone.

| molecule | EC50 [nM] |
| --- | --- |
| COc1ccc(C=NNC(=N)N)cc1Br [Compound 2014, Hydrochloride] | 2000 |
| CC(=NNC(=N)N)c1cccc(C(F)(F)F)c1 [Compound 3027, Hydrochloride] | 1260 |
| CCCOc1ccc(C=NNC(=N)N)cc1 [Compound 4006, Hydrochloride] | 2000 |
| CC(=NNC(=N)N)c1ccc2c(c1)OCCO2 [Compound 2040, Hydrochloride] | 7940 |
| Cc1cc(C=NNC(=N)N)ccc1F [Compound 2012, Hydrochloride] | 1580 |
| N=C(N)NN=Cc1ccc2ccccc2c1 [Compound 2075, Hydrochloride] | 2510 |
| CC(=NNC(=N)N)c1ccc2c(c1)OCO2 [Compound 3032, Hydrochloride] | 3980 |
| CCN(CC)c1ccc(C=NNC(=N)N)cc1 [Compound 3038, Hydrochloride] | 1260 |
